Values from patent US8088819B2

Biological target: hPPARalpha (Homo sapiens)
Construct: expressed in transfected cells; host or cells: COS-7 (monkey kidney fibroblasts)
Sequence (Q07869 239-466 limits assumed): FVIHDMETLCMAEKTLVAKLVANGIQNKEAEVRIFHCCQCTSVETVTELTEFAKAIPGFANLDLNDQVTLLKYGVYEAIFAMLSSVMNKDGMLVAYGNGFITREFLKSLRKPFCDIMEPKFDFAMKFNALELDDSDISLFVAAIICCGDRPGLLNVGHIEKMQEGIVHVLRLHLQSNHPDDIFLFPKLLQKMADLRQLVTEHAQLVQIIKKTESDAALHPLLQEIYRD
Test: PPAR activation: Gal4-hPPARα chimera luciferase transactivation in COS-7 cells, Method 2
Format: cell-based
Details: COS-7, 24 h, maximum percentage response relative to the reference phenofibric acid, read-out: hPPARalpha % max
attributeMeasured: Emax (%)

(a) COC(CCc1ccc(OC(C)(C)C(=O)O)c(Cl)c1Cl)c1ccc(-c2ccc(C(F)(F)F)cc2)s1 (stereo not shown)
(b) CCC(Oc1ccc(CCC(O)c2ccc(-c3ccc(C(F)(F)F)cc3)s2)cc1F)C(=O)O (stereo not shown)
(c) CC(C)(Oc1ccc(CCC(OCc2ccccc2)c2ccc(-c3ccc(C(F)(F)F)cc3)s2)c(Cl)c1Cl)C(=O)O (stereo not shown)
Rank the listed molecules according to Emax, from the largest value downward. Answer format: list of labels, ordered as asked.
b, a, c
